molecular target: Bcl-2, P10415; experiment: peptide SPOT array, c-Myc-tagged receptor at 1 uM or 100 nM, anti-c-Myc-Cy3
Sequence (P10415 1-217): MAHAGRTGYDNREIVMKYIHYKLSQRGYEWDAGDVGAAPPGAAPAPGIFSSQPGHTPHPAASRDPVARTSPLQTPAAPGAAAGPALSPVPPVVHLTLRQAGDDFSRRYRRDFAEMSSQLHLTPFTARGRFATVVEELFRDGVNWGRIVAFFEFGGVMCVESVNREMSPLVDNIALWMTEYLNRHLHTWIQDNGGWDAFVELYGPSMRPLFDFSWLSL
Metric: SPOT signal as a fraction of Bim BH3's signal on the same receptor and array

// known answers, use as guide
Sample ASEAMLFEEALEKYGKDFNDIRQDFL [MTA2] — what was its SPOT signal as a fraction of Bim BH3's signal on the same receptor and array?
0.01

Sample CLKRCRSAQVLHLYGATYSADGEDRA [NLRP12] — what was its SPOT signal as a fraction of Bim BH3's signal on the same receptor and array?
0.05

(1) FDHMVPLVEEINRLADELNPLNASQE [C7orf26]
(2) DIDEGLYSRQLYVLGHEAMKRLQTSS [UBA1]
Hey, which is lower on measured SPOT signal as a fraction of Bim BH3's signal on the same receptor and array, 1 or 2 ? Write down the label attached to your selection.
1

(A) VAGYRESAAFLLRSADELENLILQQN [NOL4]
(B) PFKKMDFSRNLYDIGEQLDSEDLASL [CASP8]
Hey, which is lower on measured SPOT signal as a fraction of Bim BH3's signal on the same receptor and array, A or B ? Write down the label attached to your selection.
A
(A: 0.01, B: 0.02)
